- TARGET OF ASSAY: recombinant soluble homotrimeric HA of A/common magpie/Hong Kong/5052/07 (H5N1) (Influenza A virus A/common magpie/Hong Kong/5052/2007(H5N1))
- EXPERIMENTAL PROTOCOL: trimeric HA microarray, transfection supernatant set 2
- CONDITIONS: remark: other sources report otherwise
MEASURE NAME: Trimeric HA Binding: RLU (RLU)

BINDER: TCN-563 (5237_B21) (antibody, V domains shown) VH: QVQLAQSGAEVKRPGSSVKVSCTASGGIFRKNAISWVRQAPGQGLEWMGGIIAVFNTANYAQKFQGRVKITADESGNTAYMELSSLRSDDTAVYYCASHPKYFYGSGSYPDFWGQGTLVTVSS VL: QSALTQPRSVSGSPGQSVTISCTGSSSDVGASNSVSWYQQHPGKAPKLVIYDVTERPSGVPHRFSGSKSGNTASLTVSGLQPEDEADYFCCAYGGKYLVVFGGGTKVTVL
QUANTITY UNIT: RLU
EXPERIMENTAL RESULT: 52800
//
BINDER: TCN-523 (5248_A17) (antibody, V domains shown) VH: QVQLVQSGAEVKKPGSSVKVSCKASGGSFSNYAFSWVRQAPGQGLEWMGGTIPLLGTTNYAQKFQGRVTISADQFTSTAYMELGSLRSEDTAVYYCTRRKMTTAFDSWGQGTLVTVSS VL: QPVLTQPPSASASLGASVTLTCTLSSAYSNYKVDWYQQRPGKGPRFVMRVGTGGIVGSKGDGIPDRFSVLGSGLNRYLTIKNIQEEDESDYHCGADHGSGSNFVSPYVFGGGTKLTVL
QUANTITY UNIT: RLU
EXPERIMENTAL RESULT: 7210
//
BINDER: TCN-527 (5086_C06) (antibody, V domains shown) VH: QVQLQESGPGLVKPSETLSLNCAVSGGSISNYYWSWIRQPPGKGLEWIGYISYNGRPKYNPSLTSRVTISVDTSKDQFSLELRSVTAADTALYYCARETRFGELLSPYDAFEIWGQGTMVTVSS VL: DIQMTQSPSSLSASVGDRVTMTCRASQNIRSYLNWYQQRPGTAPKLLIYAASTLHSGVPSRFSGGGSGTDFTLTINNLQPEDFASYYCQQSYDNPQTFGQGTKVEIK
QUANTITY UNIT: RLU
EXPERIMENTAL RESULT: 43800
//
BINDER: TCN-528 (5087_P17) (antibody, V domains shown) VH: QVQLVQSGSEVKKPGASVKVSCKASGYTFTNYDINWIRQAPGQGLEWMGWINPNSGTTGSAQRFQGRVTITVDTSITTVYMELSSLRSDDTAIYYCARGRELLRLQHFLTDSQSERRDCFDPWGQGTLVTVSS VL: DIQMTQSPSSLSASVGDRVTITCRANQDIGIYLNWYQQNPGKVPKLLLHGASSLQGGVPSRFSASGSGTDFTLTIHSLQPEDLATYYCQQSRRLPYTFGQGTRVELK
QUANTITY UNIT: RLU
EXPERIMENTAL RESULT: 45300
//
BINDER: TCN-504 (3251_K17) (antibody, V domains shown) VH: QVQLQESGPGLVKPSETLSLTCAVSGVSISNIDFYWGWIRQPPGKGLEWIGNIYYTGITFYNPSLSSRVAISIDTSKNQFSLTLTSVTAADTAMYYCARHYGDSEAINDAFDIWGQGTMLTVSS VL: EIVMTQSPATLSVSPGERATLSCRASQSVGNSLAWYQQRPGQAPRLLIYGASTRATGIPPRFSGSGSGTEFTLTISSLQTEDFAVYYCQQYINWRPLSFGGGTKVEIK
QUANTITY UNIT: RLU
EXPERIMENTAL RESULT: 16800
//
BINDER: TCN-522 (3212_I12) (antibody, V domains shown) VH: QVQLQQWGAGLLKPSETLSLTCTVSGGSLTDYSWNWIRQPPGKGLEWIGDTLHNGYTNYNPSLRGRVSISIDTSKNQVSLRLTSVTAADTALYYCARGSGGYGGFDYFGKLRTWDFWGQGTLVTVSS VL: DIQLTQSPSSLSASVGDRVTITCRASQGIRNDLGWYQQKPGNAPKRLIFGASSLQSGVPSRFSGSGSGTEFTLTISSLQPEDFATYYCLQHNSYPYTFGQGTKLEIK
QUANTITY UNIT: RLU
EXPERIMENTAL RESULT: 21400
